Data credit: PubChem BioAssay (NCI)

- System: OVCAR-4 ovarian
- experimentSummary: NCI-60 one-dose screen, 48 h
- measurementParameters: 10 µM unless noted
The panel holds about 83,000 compounds, 20% with a hit somewhere; the sample as a whole holds those more often. The source made the active and inactive calls. Rule for the calls: active = growth percent below 10; inactive = the rest.
Classes used: 1 (active), -1 (inactive)

C=C(C)[C@@H]1CC[C@]2(CNCCO)CC[C@]3(C)[C@H](CC[C@@H]4[C@@]5(C)CCC(N)[C@@](C)(CO)[C@@H]5CC[C@]43C)[C@@H]12 (some centres undefined) = -1
COc1ccc(-c2nnc(SCC(=O)NC3=NN=C(c4ccccc4)CS3)o2)cc1 = -1
N#Cc1c(Oc2ccc([N+](=O)[O-])cc2)nc2sc3cc(Cl)ccc3n2c1=N = -1
NS(=O)(=O)Oc1ccc(-c2sc3cc(O)ccc3c2C(=O)c2ccc(OCCN3CCCCC3)cc2)cc1 = -1
Cn1cc(-c2ccc3ncc(-c4ccc(CC(=O)Nc5cc(C(C)(C)C)nn5C)cc4)cc3c2)cn1 = 1
CN1CCN(C2=C(Cl)C(=O)c3ccccc3C2=O)CC1 = -1
CN(CCCCCCCCNc1ccnc2ccccc12)Cc1ccc(-c2ccc(-c3ccc(C#N)cc3)s2)cc1 = 1
O=c1ccn(C2OC(F)(CO)C(O)C2F)c(=O)[nH]1 (centres undefined) = -1
C=CC(=O)N[C@@H](Cc1ccc(-c2cc(Cl)cc(Cl)c2)cc1)[C@@H](O)[C@H](O)C(=O)O = -1
CC(c1ccc(-n2cccn2)cc1)c1cnc(N2CCc3ccc(C(N)=O)cc3C2)s1 (centres undefined) = -1
C[C@@H]1C(=O)N(C[C@@H](Cc2ccccc2)NC(=O)OCc2ccccc2)[C@]1(Cc1ccccc1)C(=O)OCc1ccccc1 = 1
Nc1c(C(=O)c2ccc(Cl)s2)sc2nc3c(cc12)CCCC3 = -1
N=C(N)c1ccc(-c2ccc(-c3ccc(Cl)c(Cl)c3)o2)nc1 = 1
N=C(N)c1ccc(-c2ccc(/C=C/c3ccccc3)s2)cc1 = 1
CCOc1cc(C2C(Cl)C(=O)N2n2cnnc2)ccc1O (centres undefined) = -1
Cc1csc(NC(=O)c2sc3nc(-c4cccs4)ccc3c2N)n1 = -1
CCO/C=N/C1=C(C#N)C(c2ccc(OC)cc2)c2c(c3ccccc3n(C)c2=O)O1 (centres undefined) = -1
N#Cc1c(-c2ccccc2)nc(SCC2CO2)nc1N1CCOCC1 (centres undefined) = -1
C=C1C(=O)O[C@H]2[C@H]1CC/C(C(=O)NCCCCCCCCNC(=O)/C1=C/CC[C@@]3(C)O[C@H]3[C@H]3OC(=O)C(=C)[C@@H]3CC1)=C\CC[C@@]1(C)O[C@@H]21 = -1
